pIC50: −log10 of the molar value.
Compiled notes: published pIC50 values involving NAMPT (Homo sapiens, UniProt P43490).
experimentalEndpoint: pIC50

Example compounds with recorded pIC50:
>  <compound>
CC1(Cn2cc(-c3ccc(C(=O)NCc4ccn5ccnc5c4)o3)cn2)COC1

>  <testResult>
9.59

$$$$
>  <compound>
COCCC(=O)N(CC(O)c1ccc(OC)cc1)c1ncc(C(=O)NCCCn2ccnc2)s1 (stereo not drawn)

>  <testResult>
8.43

$$$$
>  <compound>
O=C(NCc1ccn2ccnc2c1)Nc1ccc(O[C@@H]2CCN(C(=O)CC3CCOCC3)C2)cc1

>  <testResult>
9.40

$$$$
>  <compound>
CC(C)(O)C(=O)N1CC=C(c2ccc(NC(=O)Nc3ccc4nccn4c3)cc2)CC1

>  <testResult>
9.63

$$$$

[a] O=C(CC1CCOC1)NC1(c2ccc(C(=O)NCc3ccn4ccnc4c3)s2)COC1 (stereo not drawn)
[b] CC(C)CCN(C(=O)C(C)Oc1ccccc1)c1ncc(C(=O)NCCCn2ccnc2)s1 (stereo not drawn)
Which entry shows the lesser value of pIC50 here, a or b ? State the label of the item chosen. a

[I] CCOCC(=O)N1CCC(Oc2ccc(NC(=O)C3CN(c4cccnc4)C3)cc2)CC1
[II] CC(C)CC(=O)N1CCC(c2ncc(C(=O)NCc3ccn4ccnc4c3)s2)CC1
[III] O=C(Nc1ccc(OC2CCN(C(=O)c3cccs3)CC2)cc1)C1CN(c2ccnnc2)C1
[IV] Cc1nccn1CCCNC(=O)c1cnc(N(Cc2ccc(F)cc2)C(=O)CC(C)C)s1
Sort by pIC50, descending. Write the labels in rank order as requested. II, I, III, IV

* * *

Compiled notes: published IC50 values involving NAMPT (Homo sapiens).
experimentalEndpoint: IC50 (nM)

Example compounds with recorded IC50:
>  <compound>
O=C(Nc1ccc(OC2CCN(C(=O)CC(F)(F)F)CC2)cc1)C1CN(c2cccnn2)C1

>  <u>
nM

>  <IC50>
1.1

$$$$
>  <compound>
O=C(Nc1ccc(C2CCN(C(=O)c3cccc(C(F)(F)F)c3)CC2)cc1)C1CN(c2cccnn2)C1

>  <u>
nM

>  <IC50>
0.837

$$$$
>  <compound>
CC1(Cn2cc(-c3ccc(C(=O)NCc4ccn5ccnc5c4)s3)cn2)COC1

>  <u>
nM

>  <IC50>
0.306

$$$$
>  <compound>
O=C(/C=C/c1cccnc1)NCCCCC1CCN(C(=O)c2cccc(O)c2)CC1

>  <u>
nM

>  <IC50>
36

$$$$
>  <compound>
O=C(Nc1ccc(OC2CN(C(=O)C3CCC(F)(F)CC3)C2)cc1)C1CN(c2ccnnc2)C1

>  <u>
nM

>  <IC50>
89.5

$$$$
>  <compound>
O=C(Nc1ccc(OC2CN(C(=O)CC(F)(F)F)C2)cc1)C1CN(c2ccnnc2)C1

>  <u>
nM

>  <IC50>
34.8

$$$$
>  <compound>
O=C(Nc1ccc(C2CCN(C(=O)c3ccc(O)cc3)CC2)cc1)C1CN(c2cccnn2)C1

>  <u>
nM

>  <IC50>
0.569

$$$$
>  <compound>
CC(C)C(=O)N1CC(Oc2ccc(C(=O)NCc3ccn4ccnc4c3)cc2)C1

>  <u>
nM

>  <IC50>
0.352

$$$$
>  <compound>
CC(C)(O)C(=O)N1CCC(c2ccc(NC(=O)C3CN(c4cccnc4C#N)C3)cc2)CC1

>  <u>
nM

>  <IC50>
20

$$$$
>  <compound>
O=C(Nc1ccc(C2CCN(C(=O)CC3CCCCC3)CC2)cc1)C1CN(c2cccnn2)C1

>  <u>
nM

>  <IC50>
0.722

$$$$

[A] O=C(NCc1ccn2ccnc2c1)c1ccc(C2CCN(C(=O)c3ccc(F)cc3)C2)cc1 (stereo not shown)
[B] CC(=O)O[C@@H](C)C(=O)N(CCC(C)C)c1ncc(C(=O)NCCCn2ccnc2)s1
[C] O=C(Nc1ccc(OC2CN(C(=O)CC3CCOCC3)C2)cc1)C1CN(c2ccnnc2)C1
Rank the items in ascending order with respect to IC50. Write the labels in rank order as requested. B, A, C
